Numbers sourced from patent US6426229B1.

Below, each entry is listed with its recorded Content of the compound of the formula [I] in aqueous solution after kept for 60 days.
protocol details: Storage of aqueous solution or slurry for 60 days: HPLC analysis of components and appearance
Assay type: physicochemical
particulars: keeping temperature 70° C.
Report the figure in wt. % without appending any unit label.

Enquiry: I'd like to know its Content of the compound of the formula [I] in aqueous solution after kept for 60 days. The compound in question is O=C([O-])C[C@H](NCC(O)CN[C@@H](CC(=O)[O-])C(=O)[O-])C(=O)[O-].[Na+].[Na+].[Na+].[Na+] [Example 121]
Return: 78.7

Enquiry: I'd like to know its Content of the compound of the formula [I] in aqueous solution after kept for 60 days. The compound in question is O=C([O-])CCN[C@@H](CC(=O)[O-])C(=O)[O-].[Na+].[Na+].[Na+] [Example 99]
Return: 79.4

Enquiry: I'd like to know its Content of the compound of the formula [I] in aqueous solution after kept for 60 days. The compound in question is CN(CC(=O)[O-])CC(=O)[O-].[Na+].[Na+] [Example 109, disodium N-methyliminodiacetate]
Return: 78.5
